TESTED ON: partially purified recombinant chicken sEH (Gallus gallus, UniProt Q45QT1)
Sequence (Q45QT1 entry or part of it): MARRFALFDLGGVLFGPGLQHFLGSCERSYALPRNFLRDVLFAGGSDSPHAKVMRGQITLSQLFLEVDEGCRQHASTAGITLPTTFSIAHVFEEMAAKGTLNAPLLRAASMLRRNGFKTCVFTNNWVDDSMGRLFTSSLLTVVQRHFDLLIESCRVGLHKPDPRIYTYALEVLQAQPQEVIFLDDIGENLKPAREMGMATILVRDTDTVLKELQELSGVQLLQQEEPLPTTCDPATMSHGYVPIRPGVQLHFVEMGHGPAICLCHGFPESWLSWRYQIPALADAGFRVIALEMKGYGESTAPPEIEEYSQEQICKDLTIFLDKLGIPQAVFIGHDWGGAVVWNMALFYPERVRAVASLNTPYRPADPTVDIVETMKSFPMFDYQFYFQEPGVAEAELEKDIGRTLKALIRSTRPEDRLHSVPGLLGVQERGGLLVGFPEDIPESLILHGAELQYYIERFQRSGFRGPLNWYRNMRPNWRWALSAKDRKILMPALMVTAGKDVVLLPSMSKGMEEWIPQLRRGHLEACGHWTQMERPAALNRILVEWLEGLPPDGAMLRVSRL
PROTOCOL: Inhibitor assay with fluorescent substrate PHOME
Type: biochemical
EXPERIMENTAL PARAMETERS: Chicken sEH IC50, partially purified recombinant chicken sEH; PHOME 50 μM
READOUT KIND: pIC50
Note on pIC50: it is the negative log10 of concentration, concentration in mol/L.

Look up pIC50 for this molecule: `O=C(O)CCCCCCCCCCCNC(=O)NC12CC3CC(CC(C3)C1)C2`
7.90

* * *

TESTED ON: Recombinant chicken sEH (Gallus gallus)
Sequence (Q45QT1 entry or part of it): as above
PROTOCOL: IC50 determination using [3H]-t-DPPO as substrate
READOUT KIND: IC50 (nM)
Express the result in nM but write the number alone.

Look up IC50 for this compound: `O=C(O)CCCCCCCCCCCNC(=O)NC12CC3CC(CC(C3)C1)C2`
13.7

* * *

Listing of recorded pIC50 by entry.
TESTED ON: partially purified recombinant chicken sEH (Gallus gallus)
PROTOCOL: Inhibitor assay with fluorescent substrate PHOME
Type: biochemical
EXPERIMENTAL PARAMETERS: partially purified recombinant chicken sEH; PHOME 50 μM; read-out: Chicken sEH IC50
Note on pIC50: it is the negative log10 of concentration, concentration in mol/L.

COMPOUND | pIC50
O=C(NC1CCCCCC1)NC1CCC(Oc2ccc(F)cc2)CC1 (centres unmarked) [Compound 1515] | 8.59
O=C(NCCCc1ccccc1)NC1CCC(Oc2ccc(F)cc2)CC1 (centres unmarked) | 8.46
O=C(Nc1cccc(C(F)(F)F)c1)NC1CCC(OCc2c(F)cccc2F)CC1 (centres unmarked) | 8.36
O=C(NC1CCCCCCC1)NC1CCC(Oc2ccc(F)cc2)CC1 (centres unmarked) | 8.29

# next compound below
Which pIC50 is reported with partially purified recombinant chicken sEH (Gallus gallus) for this entry: O=C(Nc1cccc(Br)c1)NC1CCC(OCc2c(F)cccc2F)CC1 (centres unmarked) ?
8.62

* * *

TESTED ON: Recombinant chicken sEH (Gallus gallus)
PROTOCOL: Non-radioactive epoxide hydrolase assay (HPLC-MS/MS), specific activity of substrates
Format: biochemical
EXPERIMENTAL PARAMETERS: compound as substrate, 50 μM, 30° C., 10 min
Listing of recorded Specific activity by entry.
Express the result in nmol/min/mg but write the number alone.

Which Specific activity is reported with Recombinant chicken sEH (Gallus gallus) for this entry: CCCCCCCCC1OC1CCCCCCCC(=O)O (stereo not drawn) [cis-9,10-epoxystearic acid] ?
3.1

Which Specific activity is reported with Recombinant chicken sEH (Gallus gallus) for this entry: CCCCC/C=C\CC1OC1C/C=C\C/C=C\CCCC(=O)O (stereo not shown) ?
12.0

Which Specific activity is reported with Recombinant chicken sEH (Gallus gallus) for this entry: CCCCC/C=C\C/C=C\CC1OC1C/C=C\CCCC(=O)O (stereo not shown) ?
11.6

Which Specific activity is reported with Recombinant chicken sEH (Gallus gallus) for this entry: CCCCCC1OC1C/C=C\C/C=C\C/C=C\CCCC(=O)O (stereo not shown) ?
24.5

* * *

Listing of recorded IC50 by entry.
TESTED ON: partially purified recombinant chicken sEH (Gallus gallus)
PROTOCOL: Inhibitor assay with fluorescent substrate PHOME
Assay type: biochemical
EXPERIMENTAL PARAMETERS: partially purified recombinant chicken sEH; PHOME 50 μM; read-out: Chicken sEH IC50
In your response, the unit should come after the numeric value.

Before answering, review these 5 worked examples.
COMPOUND | IC50
CC(C)=CCOC1CCC(NC(=O)NC23CC4CC(CC(C4)C2)C3)CC1 (centres unmarked) | 5.3 nM
C=CCOC1CCC(NC(=O)NC23CC4CC(CC(C4)C2)C3)CC1 (centres unmarked) | 1.7 nM
O=C(Nc1cccc(Cl)c1)NC1CCC(OCc2c(F)cccc2F)CC1 (centres unmarked) | 2 nM
CCCCCOC(=O)C1CCC(NC(=O)NC23CC4CC(CC(C4)C2)C3)CC1 (centres unmarked) | 5.2 nM
O=C(NCCCc1ccccc1)NC1CCC(OCc2c(F)cccc2F)CC1 (centres unmarked) | 1.9 nM

Look up IC50 for this compound: CCCCCOC(=O)C1CCCC(NC(=O)NC23CC4CC(CC(C4)C2)C3)C1 (centres unmarked)
5.7 nM

Look up IC50 for this compound: O=C(Nc1ccc(C(F)(F)F)cc1)NC1CCC(OCc2c(F)cccc2F)CC1 (centres unmarked)
3.5 nM

Look up IC50 for this compound: O=C(NC1CCCCCC1)NC1CCC(Oc2ccc(F)cc2)CC1 (centres unmarked) [Compound 1271]
2.7 nM
